experimental_details: plasma compound levels on last day of treatment in xenograft-bearing mice
Assay type: in vivo
stated_conditions: nude, mouse, po, 10 mg/kg/day, A431 model, 10 mg/kg/d oral
recorded_endpoint: Cmax (nM)

smiles_entry	measured_number
CN(C)C/C=C/C(=O)Nc1cc2c(Nc3ccc(F)c(Cl)c3)ncnc2cc1O[C@H]1CCOC1	87

###

experimental_details: plasma compound levels on last day of treatment in xenograft-bearing mice
Assay type: in vivo
stated_conditions: nude, mouse, po, 30 mg/kg/day, A431 model, 30 mg/kg/d oral

compound	Cmax (nM)
CN(C)C/C=C/C(=O)Nc1cc2c(Nc3ccc(F)c(Cl)c3)ncnc2cc1O[C@H]1CCOC1 [BIBW 2992]	587

###

experimental_details: plasma compound levels on last day of treatment in xenograft-bearing mice
Assay type: in vivo
stated_conditions: nude, mouse, po, 30 mg/kg/day, A431 model, 30 mg/kg/d oral, read-out: AUC
recorded_endpoint: AUC (µM·h)

smiles_entry	recorded_endpoint	units_of_measure	measured_number
CN(C)C/C=C/C(=O)Nc1cc2c(Nc3ccc(F)c(Cl)c3)ncnc2cc1O[C@H]1CCOC1	AUC	µM·h	4.01

###

experimental_details: plasma compound levels on last day of treatment in xenograft-bearing mice
Assay type: in vivo
stated_conditions: nude, mouse, po, 15 mg/kg/day, SKOV-3 model, 15 mg/kg/d oral, read-out: AUC

molecule	units_of_measure	AUC
CN(C)C/C=C/C(=O)Nc1cc2c(Nc3ccc(F)c(Cl)c3)ncnc2cc1O[C@H]1CCOC1 [BIBW 2992]	µM·h	0.589

###

experimental_details: plasma compound levels on last day of treatment in xenograft-bearing mice
Format: in vivo
stated_conditions: nude, mouse, po, 20 mg/kg/day, MDA-453 model, 20 mg/kg/d oral

smiles_entry	Cmax / nM
CN(C)C/C=C/C(=O)Nc1cc2c(Nc3ccc(F)c(Cl)c3)ncnc2cc1O[C@H]1CCOC1	83

###

experimental_details: plasma compound levels on last day of treatment in xenograft-bearing mice
Assay type: in vivo
stated_conditions: nude, mouse, po, 3 mg/kg/day, A431 model, 3 mg/kg/d oral

smiles_entry	Cmax
CN(C)C/C=C/C(=O)Nc1cc2c(Nc3ccc(F)c(Cl)c3)ncnc2cc1O[C@H]1CCOC1	8 nM

###

experimental_details: plasma compound levels on last day of treatment in xenograft-bearing mice
Assay type: in vivo
stated_conditions: nude, mouse, po, 20 mg/kg/day, N87 model, 20 mg/kg/d oral

compound	Cmax [nM]
CN(C)C/C=C/C(=O)Nc1cc2c(Nc3ccc(F)c(Cl)c3)ncnc2cc1O[C@H]1CCOC1 [BIBW 2992]	80

###

Tested on: BT-474 cells
experimental_details: cells
Assay type: cell-based
stated_conditions: Homo sapiens, BT-474, read-out: Proliferation BT-474 EC50
pEC50: −log10 of the molar value.

smiles_entry	pEC50
CN(C)C/C=C/C(=O)Nc1cc2c(Nc3ccc(F)c(Cl)c3)ncnc2cc1O[C@H]1CCOC1	7.92
CS(=O)(=O)CCNCc1ccc(-c2ccc3ncnc(Nc4ccc(OCc5cccc(F)c5)c(Cl)c4)c3c2)o1	7.28
C#Cc1cccc(Nc2ncnc3cc(OCCOC)c(OCCOC)cc23)c1	6.08

###

experimental_details: plasma compound levels on last day of treatment in xenograft-bearing mice
Assay type: in vivo
stated_conditions: nude, mouse, po, 3 mg/kg/day, A431 model, 3 mg/kg/d oral, read-out: AUC

smiles_entry	AUC / µM·h
CN(C)C/C=C/C(=O)Nc1cc2c(Nc3ccc(F)c(Cl)c3)ncnc2cc1O[C@H]1CCOC1	0.021

###

experimental_details: plasma compound levels on last day of treatment in xenograft-bearing mice
Format: in vivo
stated_conditions: nude, mouse, po, 10 mg/kg/day, N87 model, 10 mg/kg/d oral, read-out: AUC

smiles_entry	AUC
CN(C)C/C=C/C(=O)Nc1cc2c(Nc3ccc(F)c(Cl)c3)ncnc2cc1O[C@H]1CCOC1	0.445 µM·h
